Entries and their measured log10(Ki) follow.
Target: T1, rat hypothalamic Y5 receptor (rat, UniProt Q63634 1-445)
T1 construct: Expressed transiently in COS-7 or stably in 293 cells; also called rat Y5; CG-18
T1 sequence: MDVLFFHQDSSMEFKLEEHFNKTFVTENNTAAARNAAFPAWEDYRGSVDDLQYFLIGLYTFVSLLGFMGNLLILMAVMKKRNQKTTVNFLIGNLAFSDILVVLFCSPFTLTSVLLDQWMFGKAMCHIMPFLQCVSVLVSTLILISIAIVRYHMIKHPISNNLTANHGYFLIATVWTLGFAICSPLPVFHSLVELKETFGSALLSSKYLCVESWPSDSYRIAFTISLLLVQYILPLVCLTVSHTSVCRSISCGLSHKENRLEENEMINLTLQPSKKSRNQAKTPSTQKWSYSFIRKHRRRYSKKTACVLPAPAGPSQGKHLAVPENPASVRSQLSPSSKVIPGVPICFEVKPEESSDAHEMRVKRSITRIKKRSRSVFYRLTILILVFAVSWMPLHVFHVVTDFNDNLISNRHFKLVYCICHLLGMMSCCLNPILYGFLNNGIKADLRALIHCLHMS
Experiment: 125I-PYY displacement, COS-7 membranes
EXPERIMENTAL READOUT: log10(Ki) (log10 of the value in µM)

{"BINDER": "APLEPEYPGDNATPEQMAQYAAELRRYINMLTRPRY (peptide, UniProt P01302 30-65, looked up, mature; also called PP, bovine) [bovine PP]", "EXPERIMENTAL READOUT": "log10(Ki)", "MEASURED NUMBER": -2.08}
{"BINDER": "FLRF (C-terminal amide) [FLRF-amide]", "EXPERIMENTAL READOUT": "log10(Ki)", "MEASURED NUMBER": 0.74}
{"BINDER": "DLARYYSALRHYINLITRQRY (peptide, UniProt P01304 25-45, looked up, range 16-36; Range counted on the mature peptide) [porcine NPY16-36]", "EXPERIMENTAL READOUT": "log10(Ki)", "MEASURED NUMBER": -0.59}
{"BINDER": "TPEQMAQYAADLRRYINMLTRPRY (peptide, UniProt P01298 42-65, looked up, range 13-36; Range counted on the mature peptide) [human PP13-36]", "EXPERIMENTAL READOUT": "log10(Ki)", "MEASURED NUMBER": -1.08}
{"BINDER": "APLEPVYPGDNATPEQMAQYAADLRRYINMLTRPRY (peptide, UniProt P01298 30-65, looked up, mature; also called PP, human; human pancreatic polypeptide) [human PP]", "EXPERIMENTAL READOUT": "log10(Ki)", "MEASURED NUMBER": -2.30}
{"BINDER": "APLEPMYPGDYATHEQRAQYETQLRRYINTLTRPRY (peptide, UniProt P06303 30-65, looked up, mature; also called PP, rat) [rat PP]", "EXPERIMENTAL READOUT": "log10(Ki)", "MEASURED NUMBER": -0.64}

Values were extracted from patent US6713265.
